Test system: HS 578T breast
Assay: NCI tumour cell line growth inhibition, 48 h
outcomeMeasure: TGI (µM)
Numeric only. Scale: µM

CCNC(=O)N1CCc2cc(OC)c(OCCc3ccc(OC)cc3)cc2C1c1ccc([N+](=O)[O-])cc1C (stereo not drawn) | 7.35

Proceed to the following item.
Ask: So what TGI did CC(Nc1c(C#N)cnc2ccc(-c3cncc(O)c3)cc12)c1ccccc1 (stereo not drawn) get with HS 578T breast?
Reply: 4.82

====

Tested on: SNB-75 CNS
Assay: NCI tumour cell line growth inhibition, 48 h
Where a SMILES comes first, the peptide text is derived from it. [ ]: non-standard residue; d: D form. Phe(ol) = N[C@H](CO)Cc1ccccc1; Aib = CC(C)(N)C(=O)O
outcomeMeasure: GI50

The cases that follow already have their GI50 on record.
C#CCn1cccc1CNc1ccc(OC)cc1 | > 100000 nM
CC(=O)NC(C)(C)C(=O)N1CCC[C@H]1C(=O)NC(C)(C)C(=O)N[C@@H](C)C(=O)NC(C)(C)C(=O)NC(C)(C)C(=O)N[C@@H](CCC(N)=O)C(=O)NC(C)(C)C(=O)N[C@H](C(=O)NC(C)(C)C(=O)NCC(=O)N[C@@H](CC(C)C)C(=O)NC(C)(C)C(=O)N1CCC[C@H]1C(=O)N[C@H](C(=O)NC(C)(C)C(=O)NC(C)(C)C(=O)N[C@@H](CCC(N)=O)C(=O)N[C@@H](CCC(N)=O)C(=O)N[C@H](CO)Cc1ccccc1)C(C)C)C(C)C (Ac-[Aib]P[Aib]A[Aib][Aib]Q[Aib]V[Aib]GL[Aib]PV[Aib][Aib]QQ[Phe(ol)]) | 788 nM
C#Cc1nc(C2=C(C)/C(=N/OCc3ccccc3)CC2)cs1 | > 100000 nM

Shifting focus to the compound that follows.
Ask: Endpoint output: GI50 of CCNC(=O)N1CCc2cc(OC)c(OCCc3ccc(OC)cc3)cc2C1c1ccc([N+](=O)[O-])cc1C (centres undefined) . Value?
Reply: 680 nM

====

Test system: SK-MEL-2 melanoma
Assay: NCI tumour cell line growth inhibition, 48 h
Where a SMILES comes first, the peptide text is derived from it. [ ]: non-standard residue; d: D form. Phe(ol) = N[C@H](CO)Cc1ccccc1; Aib = CC(C)(N)C(=O)O
outcomeMeasure: TGI

CC(=O)NC(C)(C)C(=O)N1CCC[C@H]1C(=O)NC(C)(C)C(=O)N[C@@H](C)C(=O)NC(C)(C)C(=O)NC(C)(C)C(=O)N[C@@H](CCC(N)=O)C(=O)NC(C)(C)C(=O)N[C@H](C(=O)NC(C)(C)C(=O)NCC(=O)N[C@@H](CC(C)C)C(=O)NC(C)(C)C(=O)N1CCC[C@H]1C(=O)N[C@H](C(=O)NC(C)(C)C(=O)NC(C)(C)C(=O)N[C@@H](CCC(N)=O)C(=O)N[C@@H](CCC(N)=O)C(=O)N[C@H](CO)Cc1ccccc1)C(C)C)C(C)C (Ac-[Aib]P[Aib]A[Aib][Aib]Q[Aib]V[Aib]GL[Aib]PV[Aib][Aib]QQ[Phe(ol)]) | 4.02 µM

Ask: Which TGI value belongs to `Cc1cc2nc3c4cc(C#N)ccc4n(CCN(C)C)c3nc2cc1C` ?
Reply: 6.15 µM

Ask: Please do the same for `C#Cc1nc(C2=C(C)/C(=N/OCc3ccccc3)CC2)cs1` as well.
Reply: > 100 µM

Ask: Next compound up: `CO/N=C1\CCc2c(sc(NC(=O)c3cccc(C(F)(F)F)c3)c2C(N)=O)C1`
Reply: 96.3 µM

Ask: Record: CC(Nc1c(C#N)cnc2ccc(-c3cncc(O)c3)cc12)c1ccccc1 (stereo not given)
Reply: 6.44 µM

Recorded values, source PubChem BioAssay (NCI).
